target: human, KCNT1 (Homo sapiens (Human)); assay: FLIPR Tl/K Flux Assay; settings: HEK293 cells stably expressing human KCNT1; Tl+ flux stimulated with EC80 of agonist Loxapine
Sequence (Q5JUK3 whole entry): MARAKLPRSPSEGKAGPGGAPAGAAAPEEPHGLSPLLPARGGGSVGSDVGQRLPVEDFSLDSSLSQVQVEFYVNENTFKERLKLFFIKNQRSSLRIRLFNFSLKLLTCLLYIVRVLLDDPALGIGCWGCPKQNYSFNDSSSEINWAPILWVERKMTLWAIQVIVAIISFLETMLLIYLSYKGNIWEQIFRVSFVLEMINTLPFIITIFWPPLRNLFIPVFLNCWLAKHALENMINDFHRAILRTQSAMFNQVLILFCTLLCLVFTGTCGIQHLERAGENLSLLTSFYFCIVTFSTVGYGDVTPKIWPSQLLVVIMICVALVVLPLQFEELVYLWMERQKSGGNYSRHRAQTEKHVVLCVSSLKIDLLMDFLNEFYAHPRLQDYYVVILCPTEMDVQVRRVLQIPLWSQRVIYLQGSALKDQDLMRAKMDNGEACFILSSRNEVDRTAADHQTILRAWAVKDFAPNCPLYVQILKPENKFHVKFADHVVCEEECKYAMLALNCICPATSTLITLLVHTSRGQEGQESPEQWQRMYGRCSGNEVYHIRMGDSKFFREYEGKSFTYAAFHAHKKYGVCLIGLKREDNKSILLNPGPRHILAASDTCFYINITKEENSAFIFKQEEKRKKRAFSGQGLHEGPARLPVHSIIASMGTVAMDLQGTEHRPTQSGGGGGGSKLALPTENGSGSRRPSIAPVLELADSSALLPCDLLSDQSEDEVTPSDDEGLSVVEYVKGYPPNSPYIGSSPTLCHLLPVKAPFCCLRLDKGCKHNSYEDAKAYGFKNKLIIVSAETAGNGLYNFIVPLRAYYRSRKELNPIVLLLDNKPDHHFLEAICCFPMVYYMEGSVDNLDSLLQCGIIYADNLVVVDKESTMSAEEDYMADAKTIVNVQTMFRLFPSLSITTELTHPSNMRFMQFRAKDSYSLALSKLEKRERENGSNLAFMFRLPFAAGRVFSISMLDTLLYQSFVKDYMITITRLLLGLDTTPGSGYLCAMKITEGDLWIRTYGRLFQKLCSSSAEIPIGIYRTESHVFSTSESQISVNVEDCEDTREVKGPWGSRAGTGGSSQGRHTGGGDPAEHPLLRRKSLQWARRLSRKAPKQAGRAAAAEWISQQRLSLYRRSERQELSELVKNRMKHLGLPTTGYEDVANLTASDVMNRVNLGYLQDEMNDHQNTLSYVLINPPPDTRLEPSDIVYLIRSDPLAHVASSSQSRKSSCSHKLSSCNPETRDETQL
pIC50: −log10 of the molar value.
Recorded pIC50, one value per entry.
measured-attribute: pIC50

- Cn1nc(CC#N)cc1C(=O)N[C@H]1CCCc2nn(-c3ccnc(C(F)(F)F)c3)cc21: 6.00 to 6.30
- Cn1nc(C(F)(F)F)cc1C(=O)N[C@@H]1CCCCn2nc(-c3ccnc(C(F)(F)F)c3)cc21 [Compound I-385b]: 6.30 to 6.60
- Cc1nn(C)c(C(=O)N[C@H]2CCCn3nc(-c4ccnc(C(F)(F)F)c4)cc32)c1F [Compound I-417a]: > 6.60
- COc1cc(C(=O)N[C@H]2CCCn3nc(-c4ccnc(C(F)(F)F)c4)cc32)cc(OC)n1 [Compound I-124a]: > 6.60
- Cn1nc(C(F)(F)F)cc1C(=O)N[C@H]1CCCc2ncc(-c3ccnc(C(F)(F)F)c3)cc21 [Compound I-383a]: < 6.00
- COc1cc(-c2nc3c(o2)CCC[C@@H]3NC(=O)c2cc(C(F)(F)F)nn2C)ccn1 [Compound I-428a]: > 6.60
- O=C(N[C@H]1CCCc2oc(-c3ccnc(C4CC4)c3)nc21)c1cccc(F)c1 [Compound I-131a]: > 6.60
- O=C(N[C@H]1CCCc2nnc(-c3ccnc(C(F)(F)F)c3)cc21)c1cc(F)cc(F)c1 [Compound I-453a]: < 6.00
- O=C(N[C@H]1CCn2nc(-c3ccnc(C(F)(F)F)c3)cc21)C12CC(C(F)(F)F)(C1)C2 [Compound I-138a]: > 6.60
- Cc1ccc(C(=O)N[C@H]2CCc3nn(-c4ccnc(C(F)(F)F)c4)cc32)c(C)c1 [Compound I-93a]: > 6.60
- COc1cc(-c2cc3n(n2)CCC[C@@H]3NC(=O)c2cc(C(F)(F)F)ccn2)ccn1 [Compound I-365a]: 6.30 to 6.60
- COc1cc(-c2nc3c(o2)[C@@H](NC(=O)c2cccc(C(F)(F)F)c2)CCC3)ccn1 [Compound I-168a]: > 6.60
- Cc1cc(C#N)cc(C(=O)N[C@H]2CCCn3nc(-c4ccnc(C(F)(F)F)c4)cc32)c1 [Compound I-418a]: > 6.60
- Cn1nc(C(F)(F)F)cc1C(=O)N[C@H]1CCc2cnc(-c3ccnc(C(F)(F)F)c3)cc21 [Compound I-118a]: > 6.60
- O=C(N[C@H]1CCCCc2nn(-c3ccnc(C4CC4)c3)cc21)c1cc(Cl)cc(C(F)(F)F)c1 [Compound I-110a]: > 6.60
- O=C(N[C@H]1CCc2nn(-c3ccnc(C(F)(F)F)c3)cc21)c1ccccc1 [Compound I-91a]: > 6.60
- COc1cc(-c2cc3n(n2)CCCC[C@@H]3NC(=O)c2cc(F)cc(C#N)c2)ccn1 [Compound I-312a]: > 6.60
- CC(C)n1nc(C(F)(F)F)cc1C(=O)NC1CCCc2nn(-c3ccnc(C(F)(F)F)c3)cc21 (racemic): > 6.60
- COc1cc(-c2cc3n(n2)CCC[C@@H]3NC(=O)c2cc(Cl)cc(C(F)(F)F)c2)ccn1 [Compound I-354a]: > 6.60
- O=C(N[C@@H]1CCCCc2nn(-c3ccnc(C(F)(F)F)c3)cc21)c1cc(Cl)cc(C(F)(F)F)c1 [Compound I-109b]: < 6.00
- O=C(N[C@H]1CCCn2nc(-c3ccnc(C(F)(F)F)c3)cc21)c1cn(C2CC2)nc1C(F)(F)F [Compound I-398a]: > 6.60
- O=C(N[C@H]1CCCn2nc(-c3ccnc(C(F)(F)F)c3)cc21)c1cnn2cc(F)ccc12 [Compound I-408a]: > 6.60
- CC(F)(F)c1cc(-c2cc3n(n2)CCC[C@@H]3NC(=O)c2ccnc(C(F)(F)F)c2)ccn1 [Compound I-500a]: > 6.60
- CC(F)(F)c1cc(-c2nc3c(o2)CCC[C@@H]3NC(=O)c2cn(C(F)(F)F)nc2C(F)(F)F)ccn1 [Compound I-545a]: > 6.60
- O=C(N[C@H]1CCn2nc(-c3ccnc(C(F)(F)F)c3)cc21)c1cc(F)cc(F)c1 [Compound I-120a]: > 6.60
- CS(=O)(=O)c1cccc(C(=O)N[C@H]2CCc3nn(-c4ccnc(C(F)(F)F)c4)cc32)c1 [Compound I-395a]: < 6.00
- Cn1nc(C(F)(F)F)cc1C(=O)N[C@H]1CCCc2nc(-c3ccnc(C4CC4)c3)oc21 [Compound I-180a]: > 6.60
- CC(C)(C)CC(=O)N[C@@H]1CCc2nn(-c3ccnc(C(F)(F)F)c3)cc21 [Compound I-103b]: < 6.00
- Cn1nc(C(F)(F)F)cc1C(=O)N[C@@H]1CCCc2nn(-c3ccnc(C(F)(F)F)c3)cc21: < 6.00
- COc1cc(-c2cc3n(n2)CC[C@@H]3NC(=O)c2cccc(C(F)(F)F)c2)ccn1 [Compound I-286a]: > 6.60
